Data origin, for the record: patent US11433099B2

Tested on: CD8+ T cells of healthy HLA-B*08 donors
Test: In vitro T-cell priming assay with aAPCs loaded with peptide/MHC complexes and anti-CD28 antibody, pMHC multimer readout
Type: cell-based, human
Details: in vitro immunogenicity, HLA class I peptides, Table 10B
QUANTITY: Wells positive [%]

{"SUBSTANCE": "3 (SIQSRYISM; listed as Homo sapiens) [compound 3]", "MEASURED_ON": "CD8+ T cells of healthy HLA-B*08 donors", "Wells positive [%]": "++ (20%-49% = ++)"}
{"SUBSTANCE": "37 (EAFSRASL; listed as Homo sapiens) [compound 37]", "MEASURED_ON": "CD8+ T cells of healthy HLA-B*08 donors", "Wells positive [%]": "++ (20%-49% = ++)"}
{"SUBSTANCE": "35 (ELFQRPVL; listed as Homo sapiens) [compound 35]", "MEASURED_ON": "CD8+ T cells of healthy HLA-B*08 donors", "Wells positive [%]": "+ (<20% = +)"}
{"SUBSTANCE": "83 (FVLLRSVDL; listed as Homo sapiens) [compound 83]", "MEASURED_ON": "CD8+ T cells of healthy HLA-B*08 donors", "Wells positive [%]": "+++ (50%-69%= +++)"}
{"SUBSTANCE": "45 (RLKVALSTL; listed as Homo sapiens) [compound 45]", "MEASURED_ON": "CD8+ T cells of healthy HLA-B*08 donors", "Wells positive [%]": "+ (<20% = +)"}

What does the data say about its Wells positive [%]? Entry: 5 (STMPKILAL; listed as Homo sapiens) [compound 5] + (<20% = +)

Now the substance 58 (LPKKMKLL; listed as Homo sapiens) [compound 58] ++ (20%-49% = ++)

Now the substance 9 (LLKGKPRAL; listed as Homo sapiens) [compound 9] + (<20% = +)

Now the substance 22 (EVRLKPIL; listed as Homo sapiens) [compound 22] + (<20% = +)

Now the substance 57 (MPLKHYLL; listed as Homo sapiens) [compound 57] +++ (50%-69%= +++)
